- tested system: Cytochrome P450 3A4 (Homo sapiens, UniProt P08684)
- Sequence (P08684 whole entry): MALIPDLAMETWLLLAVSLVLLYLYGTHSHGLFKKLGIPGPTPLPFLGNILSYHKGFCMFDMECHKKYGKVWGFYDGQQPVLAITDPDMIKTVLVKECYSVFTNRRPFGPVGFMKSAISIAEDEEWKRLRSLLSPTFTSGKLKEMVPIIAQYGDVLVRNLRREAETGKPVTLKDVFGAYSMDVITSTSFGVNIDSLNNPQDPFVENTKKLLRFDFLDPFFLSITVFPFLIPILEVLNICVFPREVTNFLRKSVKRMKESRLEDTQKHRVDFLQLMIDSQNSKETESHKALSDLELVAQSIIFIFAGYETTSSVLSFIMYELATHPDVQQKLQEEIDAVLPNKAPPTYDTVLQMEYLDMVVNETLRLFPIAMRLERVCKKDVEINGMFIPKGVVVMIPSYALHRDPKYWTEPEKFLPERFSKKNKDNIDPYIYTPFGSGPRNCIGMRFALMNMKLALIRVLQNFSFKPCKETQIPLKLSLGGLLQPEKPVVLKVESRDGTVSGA
pIC50: −log10 of the molar value.
measure name: pIC50

                                   compound  result
0  COc1ccc(CN(C(=O)[C@@H](N)Cc2c(C)cc(C(N)=O)cc2C)C(C)c2nc(-c3ccccc3)c[nH]2)cc1C(=O)O.Cl.Cl (single isomer, unassigned)  < 4.70

* * *

- tested system: Mu-type opioid receptor (Homo sapiens, UniProt P35372)
- Sequence (P35372 whole entry): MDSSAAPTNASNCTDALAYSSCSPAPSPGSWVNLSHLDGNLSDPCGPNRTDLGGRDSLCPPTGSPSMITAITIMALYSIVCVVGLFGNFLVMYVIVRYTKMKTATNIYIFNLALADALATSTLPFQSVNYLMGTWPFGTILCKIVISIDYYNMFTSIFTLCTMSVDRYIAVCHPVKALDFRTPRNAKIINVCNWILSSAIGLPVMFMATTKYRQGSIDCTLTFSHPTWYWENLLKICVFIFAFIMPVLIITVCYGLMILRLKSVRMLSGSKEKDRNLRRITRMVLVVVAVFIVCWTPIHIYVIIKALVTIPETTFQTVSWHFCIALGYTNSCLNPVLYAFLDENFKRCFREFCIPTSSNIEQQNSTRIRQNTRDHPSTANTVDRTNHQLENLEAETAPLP
measure name: Ki (nM)

>>> df
                                   compound                             tested_system  measure_name  numeric_value
0  COc1ccc(CN(C(=O)[C@@H](N)Cc2c(C)cc(C(N)=O)cc2C)C(C)c2nc(-c3ccccc3)c[nH]2)cc1C(=O)O.Cl.Cl (single isomer, unassigned)  Mu-type opioid receptor (Homo sapiens, UniProt P35372)            Ki            1.7
